B1: DnaJ homolog subfamily C member 2, residues 451 to 503; numbered along this chain, Q99543 (parent)
chain: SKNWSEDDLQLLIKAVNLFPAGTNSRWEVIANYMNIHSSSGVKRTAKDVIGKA

# Variants of: B1
# procedure_details: abundance fitness (aPCA) (normalised: wild type 0, dead -1); higher = more abundant; growth selection in yeast, the domain comes from the species named
# experimental_parameters: Homo sapiens
readout_type: abundance fitness

Past entries and their recorded results:
Please report the recorded abundance fitness for `E28W` . -0.592

Endpoint output: abundance fitness of `Q10Y` . Value? -0.207

Further cases:
Need abundance fitness of `K52H` , thanks. -0.126

// query abundance fitness value for entry `D7A` 0.106

Name the recorded abundance fitness for `D48R` . -0.708

Give its abundance fitness value. Item: `K43F` -0.179

May I ask what abundance fitness has been recorded for `S5T` ? -0.014

Entry `Y33N` has what abundance fitness? -0.968

Entry under review: `V49A` . Reported abundance fitness? -0.219

If you can, please state the reported abundance fitness value of `W27N` . -0.581

Recorded abundance fitness of `K2Y` , please. -0.138

Given `W27D` , state its recorded abundance fitness. -0.419

Value lookup for abundance fitness; key = `W27T` -0.475

Entry under review: `I30D` . Reported abundance fitness? -0.729

Every entry's value here was drawn from the Human Domainome abundance scans (Beltran et al. 2025).
